- TESTED_TARGET: T1, Anti-CD28 scFv (VH - linker 1 - VL) (biotinylated (site not stated))
- T1 construct: Biotinylated and captured on neutravidin-coated plates in the phage panning ELISA
- T1 sequence (scFv, as listed by the source): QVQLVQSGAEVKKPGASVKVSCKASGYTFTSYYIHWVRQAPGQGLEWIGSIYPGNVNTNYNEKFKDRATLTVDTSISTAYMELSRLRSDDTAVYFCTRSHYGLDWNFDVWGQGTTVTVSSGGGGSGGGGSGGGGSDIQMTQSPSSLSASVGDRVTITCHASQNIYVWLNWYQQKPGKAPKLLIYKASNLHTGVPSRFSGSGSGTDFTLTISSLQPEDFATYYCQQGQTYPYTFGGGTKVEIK
- ASSAY_NAME: phage ELISA; biotinylated anti-CD28 scFv on neutravidin plate, wells pre-incubated with soluble CD28 as competitor, anti-M13-HRP detection
Measured CD28 scFv signal in presence of CD28 accompanies every entry in the list below.
Write the number on its own, no unit after it.

Reference set, count: 3
>  <BINDER>
MDWCPRDRWDDCFF (tested as crude clonal phage supernatant) [Phage-441 clonal phage peptide MDWCPRDRWDDCFF]

>  <READOUT_VALUE>
0.183

$$$$
>  <BINDER>
MYWCPKYMWSECFA (tested as crude clonal phage supernatant) [Phage-418 clonal phage peptide MYWCPKYMWSECFA]

>  <READOUT_VALUE>
0.099

$$$$
>  <BINDER>
IVWCPTTQWNRCAT (tested as crude clonal phage supernatant) [Phage-434 clonal phage peptide IVWCPTTQWNRCAT]

>  <READOUT_VALUE>
0.083

$$$$

# evaluate next
Notebook: IYWCPTAMWNRCSA (tested as crude clonal phage supernatant) [Phage-417 clonal phage peptide IYWCPTAMWNRCSA] , CD28 scFv signal in presence of CD28 read as 0.073
